Biological target: T1, SXM (GST-SXL Drosophila) (Drosophila melanogaster, UniProt P19339 1-354)
T1 sequence: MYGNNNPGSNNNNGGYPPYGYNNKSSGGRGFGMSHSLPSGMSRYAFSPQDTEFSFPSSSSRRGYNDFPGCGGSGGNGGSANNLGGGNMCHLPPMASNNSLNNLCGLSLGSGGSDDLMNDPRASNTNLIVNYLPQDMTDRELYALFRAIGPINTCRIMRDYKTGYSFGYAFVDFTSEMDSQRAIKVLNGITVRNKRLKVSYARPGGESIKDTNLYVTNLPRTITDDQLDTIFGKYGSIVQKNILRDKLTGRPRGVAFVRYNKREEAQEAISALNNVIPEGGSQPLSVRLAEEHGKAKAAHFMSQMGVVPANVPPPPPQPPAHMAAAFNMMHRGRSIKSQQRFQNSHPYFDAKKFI
Experiment: EMSA; cooperative, Hill n>2; error 95% CI; 20 mM Hepes pH 8.0, 0.1 M KCl, 0.5 mM EDTA, 1 mM DTT, 0.05% NP40, 20% glycerol, 3 µg yeast tRNA; 5 min on ice, then 10 min at room temperature with RNA; 5% native PAGE, 0.25x TBE
Settings: protein: recombinant; tags: GST; label: fluorescein (RNA labelling mix)
Measured Quantity: Kd (nM)

>>> measured_result("CAUGAUUAUUUUUUUUUAUUUUUUUUCGGUGA (ssRNA) [double poly(U) SXL site]")
500
